B1: DVL3 (parent)
chain: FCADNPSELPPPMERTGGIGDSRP

Variants of: B1
Assay: protein stability index of a GFP-peptide fusion (GPS, HEK-293T) (PSI 1-6); higher = more stable;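 note: lentivirally expressed fusions sorted by FACS into six bins by GFP to DsRed ratio, PSI derived from sequencing read proportions per bin multiplied by bin number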
Details: c terminus: a fixed tail appended
Below, each entry is listed with its recorded protein stability index.
value_kind: protein stability index

INSERT INTO results (sequence_content, measured_number) VALUES
  ('FCADNPSELPPPMERTGGIGDSRS [P24S]', 4.73),
  ('FCADNPSELPPTMERTGGIGDSRP [P12T]', 3.99),
  ('FCADNPSELPPPMEDTGGIGDSRP [R15D]', 4.76),
  ('FCADNPSELPPPMMRTGGIGDSRP [E14M]', 4.37),
  ('FCADNPSELPPPMEYTGGIGDSRP [R15Y]', 4.39),
  ('FCADNPSELPPPMERSGGIGDSRP [T16S]', 4.25),
  ('FCPDNPSELPPPMERTGGIGDSRP [A3P]', 4.17),
  ('FCADNPSELPPPMERTGGIGDLRP [S22L]', 4.4),
  ('FCADNPSELPPPMERTGGIDDSRP [G20D]', 4.51),
  ('FCALNPSELPPPMERTGGIGDSRP [D4L]', 3.83),
  ('FCADNPSELPPPMEHTGGIGDSRP [R15H]', 4.97),
  ('FCADNPSELPPEMERTGGIGDSRP [P12E]', 4.89),
  ('FCADNPSELPPPMERTGGWGDSRP [I19W]', 3.51),
  ('FCADNPSELPPPMERTGGIGDSFP [R23F]', 3.55),
  ('FCADNPSELPPPMERTGGIGDNRP [S22N]', 5.01),
  ('FCADGPSELPPPMERTGGIGDSRP [N5G]', 4.46),
  ('FCAQNPSELPPPMERTGGIGDSRP [D4Q]', 3.36),
  ('FSADNPSELPPPMERTGGIGDSRP [C2S]', 5),
  ('FCADNPSELPPPMERTGGFGDSRP [I19F]', 4.37),
  ('FCADNPSELPPPMERPGGIGDSRP [T16P]', 3.87),
  ('FCADNPSELPPPEERTGGIGDSRP [M13E]', 5.18),
  ('FCADNPSELPPPMERTGGIMDSRP [G20M]', 4.18),
  ('FYADNPSELPPPMERTGGIGDSRP [C2Y]', 4.75),
  ('FCADNPSELPPPMERNGGIGDSRP [T16N]', 4.7),
  ('FCADNPSELPPPMERTGGKGDSRP [I19K]', 5.59),
  ('FCAYNPSELPPPMERTGGIGDSRP [D4Y]', 3.98),
  ('FCADNPSELPPPMERTGGIGQSRP [D21Q]', 4.58),
  ('FCADNPSELPPPMERTGRIGDSRP [G18R]', 4.34),
  ('FCADNPSELPTPMERTGGIGDSRP [P11T]', 5.12),
  ('FCADNPSELPPPMGRTGGIGDSRP [E14G]', 3.84),
  ('FCADNPSELPPPMERTGWIGDSRP [G18W]', 3.41),
  ('FCADNPSELPPPMPRTGGIGDSRP [E14P]', 4.27),
  ('FCADNPSELPPPMERTGGCGDSRP [I19C]', 4.94),
  ('FCADNPTELPPPMERTGGIGDSRP [S7T]', 4.22),
  ('FCADNPSELPPPMERTGGIVDSRP [G20V]', 4.49),
  ('FCADNPSELPPPMERTGGIGDSRA [P24A]', 3.79),
  ('FCADNPSELPPPMERTGDIGDSRP [G18D]', 4.77),
  ('FHADNPSELPPPMERTGGIGDSRP [C2H]', 4.36),
  ('FCADNPSELPPPMERTGGTGDSRP [I19T]', 4.31),
  ('FCADLPSELPPPMERTGGIGDSRP [N5L]', 3.32),
  ('FFADNPSELPPPMERTGGIGDSRP [C2F]', 4.31),
  ('FCADNPSELPPPMERHGGIGDSRP [T16H]', 4.33),
  ('TCADNPSELPPPMERTGGIGDSRP [F1T]', 4.99),
  ('FCADNPSELPPNMERTGGIGDSRP [P12N]', 4.69),
  ('FCADNPSELPPPMERTGGIGDSMP [R23M]', 4.12),
  ('FCADNPMELPPPMERTGGIGDSRP [S7M]', 4.3);
